# Method description: protein stability index of a GFP-peptide fusion (yeast GPS) (PSI 1-4); higher = more stable; sorted into four equal gates, so the index is relative within each strain
# Assay setup: pdr5∆
Response key: 1.0 means protein stability index >= 2; 0.0 means protein stability index < 2.

In plain terms: is recorded protein stability index at least 2 for IAEGKSKQDASPKPYAV [RPL8B] ?
1.0

ESLVHSALCILKEQELV [BRR2] , same question.
0.0

Here is the next sequence: ENLFSKEEVCQGMEGTV [YMR129W/POM152]
1.0

Another sequence: RPQKLRASLVPGTVLIL [RPL6A]
1.0

Queued: KIYMLYSLQPSVDITGG [RPC34]
1.0

Thanks! And LLDRILPKLKATGHRVL [SNF2] ?
1.0

Could you do the same for LIGCIDEAKDFIVSGTA [PUP3] , please?
1.0

Consider next the sequence WVQLVQIIVTDGKLEPS [YJL039C/NUP192] in the same way.
0.0

Subsequent entry: NPLIELTPIQKKIMDET [ITC1]
1.0

Next entry: LFRIFSMSEEFKYVSVR [BRR2]
1.0

Check AKGFYHTPMVNFESISA [SRB8] too.
0.0

Another sequence to check: RVPIRSEYKVAFPHLYN [PRP8]
1.0

Next record, please: ALDYLIPPPMPKNQQYR [MED7]
1.0
